# Tested on: HS 578T breast
# Test: NCI-60 one-dose screen, 48 h (100 = growth as untreated, 0 = no growth, -100 = all killed)
# Condition context: 10 µM
Compounds without any hit were thinned out: in the full panel of roughly 83,000, 20% have a hit.

Compound: CS(=O)(=O)Nc1ccc(Nc2c3ccccc3nc3cc([N+](=O)[O-])ccc23)cc1
growth, %: 60.3

Compound: COc1ccc(C2=Nc3c(C)nn(-c4ccccc4)c3NC(c3ccc(Oc4ccnc5cc(Cl)ccc45)c(OC)c3)C2)cc1 (stereo not given)
growth, %: 78.6

Compound: COc1ccc(-c2ccc3cc(C(=O)Nc4ccc(O)c(C(=O)/C=C/c5cc(OC)c(OC)c(OC)c5)c4)ccc3c2)cc1
growth, %: 102

Compound: S=c1[nH]ccn1-c1c(Cl)cccc1Cl
growth, %: 109

Compound: CC(=O)c1nc2ccccc2n1CCN1CCN(C)CC1
growth, %: 48.3

Compound: COc1cc(-c2cc(/C=C/C(=O)c3ccc4c(c3)OCO4)[nH]n2)cc(OC)c1OC
growth, %: 86.6

Compound: COc1ccc(-c2nn(-c3cccc(NC(=O)c4cccc(C(F)(F)F)c4)c3)cc2-c2ccncc2)cc1Cl
growth, %: 24.9

Compound: Cc1ccc(C)c(C(O)(c2cc(C)ccc2C)C2(O)CCCCC2)c1
growth, %: 94.1

Compound: Cc1ccc(NC(=O)Nc2nc3ccccc3s2)cc1NC(=O)Nc1nc2ccccc2s1
growth, %: 77.3

Compound: O=C1N=NC2=C1c1c3ccccc3c(O)n1CC2
growth, %: 147

* * *

# Tested on: 786-0 renal
# Test: NCI-60 one-dose screen, 48 h
# Condition context: 10 µM
This is part of a sample that, as a whole, favours compounds with a hit. Of some 83,000 tested, about 20% had one in any assay. Calls of active or inactive are those of the source. The calls were made as follows: active = growth percent below 10; inactive = the rest.
Labels: active, inactive

Chemical structure: N#Cc1ncc(Br)c(NC2CCCCCC2)n1
Tested on: 786-0 renal
Assigned class: inactive
--
Chemical structure: CN(C)c1ccc(/C=C/C=N/NC(=O)c2cc(O)c(O)c(O)c2)cc1
Tested on: 786-0 renal
Assigned class: inactive
--
Chemical structure: CC(=O)O[C@]1(C)CC[C@H]2[C@H](CNCCc3ccc(Cl)cc3)C(=O)O[C@@H]2C2=C(C)C(=O)C[C@H]21
Tested on: 786-0 renal
Assigned class: inactive
--
Chemical structure: Nc1cc2c(cc1Cl)-c1ccc([N+](=O)[O-])cc1/C2=N\O
Tested on: 786-0 renal
Assigned class: inactive
--
Chemical structure: Cn1c([N+](=O)[O-])cnc1/C=C1\Oc2ccccc2C1=O
Tested on: 786-0 renal
Assigned class: active

* * *

Measured growth accompanies every entry in the list below.
# Tested on: PC-3 prostate
# Test: NCI-60 one-dose screen, 48 h (100 = growth as untreated, 0 = no growth, -100 = all killed)
# Condition context: 10 µM
The panel holds about 83,000 compounds, 20% with a hit somewhere; the sample as a whole holds those more often. The source made the active and inactive calls. How the source made its calls: active means growth percent below 10; inactive means the rest.

Compound: c1ccc(CSc2nnc3c4c5c(sc4nc(-c4cccnc4)n23)CCCCCC5)cc1
Tested on: PC-3 prostate
growth: 9.01% (active)
--
Compound: COc1ccc2c(c1)nc(N)c1c3cccnc3cn21
Tested on: PC-3 prostate
growth: 20.6% (inactive)
--
Compound: Cc1cc(=O)n2nnc3c4ccccc4ccc3n12
Tested on: PC-3 prostate
growth: 62.5% (inactive)
--
Compound: CCN(CCCCCCN1CC(=O)N(CCCCCCN(CC)Cc2ccccc2OC)CC1=O)Cc1ccccc1OC
Tested on: PC-3 prostate
growth: 77.1% (inactive)
--
Compound: O=C1ON=[N+](c2ccc(Cc3ccc([N+]4=NOC(=O)C4CN4CCOCC4)cc3)cc2)C1CN1CCOCC1 (stereo not given)
Tested on: PC-3 prostate
growth: 56.5% (inactive)
--
Compound: COc1ccc(-c2nc3ncccn3c2-c2nnc(-c3ccsc3C)o2)cc1
Tested on: PC-3 prostate
growth: 83.6% (inactive)
--
Compound: COc1ccc(OC)c(NC(=O)c2sc3nc4c(cc3c2N)C(=O)CCC4)c1
Tested on: PC-3 prostate
growth: 80.4% (inactive)
--
Compound: COc1ccc2c(c1)O/C(=C\c1ccc([N+](=O)[O-])o1)C2=O
Tested on: PC-3 prostate
growth: -2.47% (active)
--
Compound: COc1ccc(-c2nc3ncccn3c2-c2nnc(-c3ccc(F)cc3)o2)cc1
Tested on: PC-3 prostate
growth: 92.8% (inactive)
--
Compound: CN(C)c1ccc(Cc2ccc(N(C)C)cc2Cl)c(Cl)c1
Tested on: PC-3 prostate
growth: 86.8% (inactive)

* * *

# Test system: HCT-116 colon
# Test: NCI-60 one-dose screen, 48 h (100 = growth as untreated, 0 = no growth, -100 = all killed)
# Condition context: 10 µM
About 83,000 compounds went through this panel and 20% of them were active in at least one assay; those are over-represented in the sample as a whole.

Compound: COc1cc(-c2nnc(-c3c(-c4ccc(F)cc4)nc4ccccn34)o2)cc(OC)c1OC
Tested on: HCT-116 colon
growth [%]: 34.1
--
Compound: O=C1ON=[N+](c2ccc(Cc3ccc([N+]4=NOC(=O)C4CN4CCOCC4)cc3)cc2)C1CN1CCOCC1 (centres undefined)
Tested on: HCT-116 colon
growth [%]: 63.7
--
Compound: CC1(O)CCC2CC3OC3(C)CCC3OC3(C)CCC1C2(C)C (centres undefined)
Tested on: HCT-116 colon
growth [%]: 100
--
Compound: COc1ccc(-c2nn(-c3cccc(NC(=O)Nc4ccc(Cl)c(C(F)(F)F)c4)c3)cc2-c2ccncc2)cc1Cl
Tested on: HCT-116 colon
growth [%]: 8.61
--
Compound: O=C(O)C(SC(C(=O)O)c1ccccc1)c1ccccc1 (centres undefined)
Tested on: HCT-116 colon
growth [%]: 106
--
Compound: CCC(=O)N1C/C(=C/c2ccc(OC)cc2)C(=O)/C(=C/c2ccc(OC)cc2)C1
Tested on: HCT-116 colon
growth [%]: -70.8
--
Compound: O=C(N/N=C/c1ccccc1O)C(O)(c1ccccc1)c1ccccc1
Tested on: HCT-116 colon
growth [%]: 8.42
--
Compound: Cc1cccc2c(NCCN(C)C)c3cccc(C(=O)NCCN(C)C)c3nc12
Tested on: HCT-116 colon
growth [%]: 8.86
--
Compound: COc1cc(/C=C2\Oc3cc(OCC(=O)c4ccccc4)ccc3C2=O)cc(OC)c1OC
Tested on: HCT-116 colon
growth [%]: 106
--
Compound: O=C(N/N=C\c1cc(Cl)ccc1[N+](=O)[O-])c1ccco1
Tested on: HCT-116 colon
growth [%]: 113
--
Compound: COc1ccc(-c2nn(-c3cccc(NC(=O)Nc4cccc(C(F)(F)F)c4)c3)cc2-c2ccncc2)cc1Cl
Tested on: HCT-116 colon
growth [%]: 9.6
--
Compound: COc1ccc(/C=C/C(C)=N/OCC(=O)O)cc1
Tested on: HCT-116 colon
growth [%]: 96.9
--
Compound: COc1cc(C2CC(c3ccc(Nc4ccnc5cc(Cl)ccc45)cc3)=NN2c2ccc(Cl)cc2)cc(OC)c1OC (centres undefined)
Tested on: HCT-116 colon
growth [%]: 46.6
--
Compound: CN(CCc1ccccn1)c1ccccc1
Tested on: HCT-116 colon
growth [%]: 101
--
Compound: CC/C(=C(/c1ccc(OCCN(C)C)cc1)c1ccc(OC(=O)CCCCC(=O)c2c(C)[nH]c(/C=C3\N=C(c4ccc[nH]4)C=C3OC)c2C)cc1)c1ccccc1
Tested on: HCT-116 colon
growth [%]: 48.3
--
Compound: CC(C)=CCc1cc(O)cc2c1OC(C=C(C)C)C1=C2C(=O)C2=C(NCCS2(=O)=O)C1=O (centres undefined)
Tested on: HCT-116 colon
growth [%]: -15.4
--
Compound: Cc1ccc(NC(=O)Nc2cccnc2)cc1NC(=O)Nc1cccnc1
Tested on: HCT-116 colon
growth [%]: 90.2
--
Compound: CC(=O)OCc1cc(-c2nc3ccccc3[nH]c2=O)nn1-c1ccc(Cl)cc1
Tested on: HCT-116 colon
growth [%]: 100
--
Compound: COc1ccc(-c2nc3sc(-c4ccccc4)c(-c4ccccc4)n3c2/C=C/C(=O)c2ccccn2)cc1
Tested on: HCT-116 colon
growth [%]: 67.2

* * *

# Tested on: DU-145 prostate
# Test: NCI-60 one-dose screen, 48 h
# Condition context: 10 µM
The panel holds about 83,000 compounds, 20% with a hit somewhere; the sample as a whole holds those more often. Calls of active or inactive are those of the source. Rule for the calls: active = growth percent below 10; inactive = the rest.
Labels: active, inactive

Compound: COc1ccc2c(c1)C(=O)c1c-2c(OCCN(C)C)nc2cc(OC)c(OC)cc12
Tested on: DU-145 prostate
Assigned class: inactive

Compound: O=C1Nc2ccc(Cl)cc2/C1=C\c1c(-c2ccc(Cl)cc2)nc2sc(C3CC3)nn12
Tested on: DU-145 prostate
Assigned class: inactive

Compound: Nc1ccccc1NC(=O)CCCCC(=O)Nc1ccc2c(c1)/C(=C/c1ccc[nH]1)C(=O)N2
Tested on: DU-145 prostate
Assigned class: inactive

Compound: CC(=O)n1c(-c2ccc(Cl)c(Cl)c2)cn(-c2ccc(Cl)cc2)c1=O
Tested on: DU-145 prostate
Assigned class: active

Compound: COc1cc(NC(=O)c2sc3nc4c(cc3c2N)C(O)CCC4)cc(OC)c1 (stereo unspecified)
Tested on: DU-145 prostate
Assigned class: inactive

Compound: O=C1C(=O)c2ccccc2C(O)=C1CCCc1ccc(C2CCCCCC2)cc1
Tested on: DU-145 prostate
Assigned class: inactive

Provenance of the data: PubChem BioAssay (NCI)
